MEASURED ON: UniProtKB Q8E3H1
Sequence (Q8E3H1 2-402 limits assumed): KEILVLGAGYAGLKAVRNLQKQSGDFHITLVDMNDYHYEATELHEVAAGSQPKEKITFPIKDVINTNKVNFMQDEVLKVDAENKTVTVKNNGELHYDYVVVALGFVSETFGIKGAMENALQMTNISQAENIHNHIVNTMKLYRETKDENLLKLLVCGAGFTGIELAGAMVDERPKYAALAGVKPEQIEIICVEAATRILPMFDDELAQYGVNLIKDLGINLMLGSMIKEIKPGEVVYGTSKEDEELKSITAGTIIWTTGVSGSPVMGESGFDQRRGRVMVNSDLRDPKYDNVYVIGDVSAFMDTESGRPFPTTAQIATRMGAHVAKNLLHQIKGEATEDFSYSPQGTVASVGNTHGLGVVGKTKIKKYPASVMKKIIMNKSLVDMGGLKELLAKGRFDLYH
TEST DESCRIPTION: Inhibition of isolated NDH-2 NADH:quinone oxidoreductase activity (FDA-approved drug library screen and IC50)
PROPERTY LABEL: pIC50
Quick note: pIC50 values are minus log10 of concentrations in mol/L.

Reported pIC50 for CC[C@H](C)C[C@H](C)CCCCCCCCC(=O)N[C@H]1C[C@@H](O)[C@@H](NCCN)NC(=O)[C@@H]2[C@@H](O)CCN2C(=O)[C@H]([C@H](O)CCN)NC(=O)[C@H]([C@H](O)[C@@H](O)c2ccc(O)cc2)NC(=O)[C@@H]2C[C@@H](O)CN2C(=O)[C@H]([C@@H](C)O)NC1=O [Caspofungin] was 4.82

// pIC50 value for CCCCC(CC)CNC(=N)NC(=N)NCCCCCCNC(=N)NC(=N)NCC(CC)CCCC (centres unmarked) [Alexidine] : 4.77

Record Cc1cc(C(C#N)c2ccc(Cl)cc2)c(Cl)cc1NC(=O)c1cc(I)cc(I)c1O (centres unmarked) [Closantel] . Reported pIC50: 5.27

// recorded pIC50 for COc1cc(C(=O)NS(=O)(=O)c2ccccc2C)ccc1Cc1cn(C)c2ccc(NC(=O)OC3CCCC3)cc12 [Zafirlukast] : 6.08

The measured pIC50 associated with CSc1nc2cc(Cl)c(Oc3cccc(Cl)c3Cl)cc2[nH]1 [Triclabendazole] reads 6.85
